Biological target: T1, B-cat-Halo (UniProt P35222 1-781)
T1 sequence (looked up): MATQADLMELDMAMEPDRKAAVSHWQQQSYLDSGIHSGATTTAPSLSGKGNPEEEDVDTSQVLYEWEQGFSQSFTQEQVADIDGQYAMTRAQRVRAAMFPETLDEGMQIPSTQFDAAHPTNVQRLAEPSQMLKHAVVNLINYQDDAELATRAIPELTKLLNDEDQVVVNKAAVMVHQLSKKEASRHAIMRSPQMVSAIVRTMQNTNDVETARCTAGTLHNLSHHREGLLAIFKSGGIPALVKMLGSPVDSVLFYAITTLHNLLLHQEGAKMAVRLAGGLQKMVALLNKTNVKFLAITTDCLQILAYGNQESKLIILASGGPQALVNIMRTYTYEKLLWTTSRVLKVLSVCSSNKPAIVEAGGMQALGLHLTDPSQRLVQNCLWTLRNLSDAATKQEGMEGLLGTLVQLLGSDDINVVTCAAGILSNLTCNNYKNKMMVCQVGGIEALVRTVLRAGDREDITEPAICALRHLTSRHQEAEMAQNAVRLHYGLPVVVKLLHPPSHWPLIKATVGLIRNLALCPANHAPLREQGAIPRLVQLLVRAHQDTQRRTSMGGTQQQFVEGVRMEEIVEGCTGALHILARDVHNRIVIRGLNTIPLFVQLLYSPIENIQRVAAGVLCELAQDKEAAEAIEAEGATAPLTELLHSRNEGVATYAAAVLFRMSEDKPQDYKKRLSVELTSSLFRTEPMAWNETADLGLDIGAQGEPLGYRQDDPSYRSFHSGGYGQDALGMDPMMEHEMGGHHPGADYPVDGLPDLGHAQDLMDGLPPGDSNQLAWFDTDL
Assay: cell-based or functional assay
Starred links: 1 amine or outer side, 2 acyl side, 3 side chain; linkers in the order of their positions; H or OH if unused. Positions of bridges follow the written chain, without caps; N, C: chain ends. Non-standard residues stand in square brackets, D forms with d. Primed or numbered codes have the meaning given here. PyrS2″ = (S)-3-amino-1-((pent-4-en-1-yloxy)carbonyl)pyrrolidine-3-carboxylic acid (stapling residue), C=CCCCOC(=O)N1CC[C@@](N[*:1])(C(=O)[*:2])C1; B5(4) = 2,2-bis(4-pentenyl)glycine = 2-amino-2-(pent-4-en-1-yl)hept-6-enoic acid (stitching residue), C=CCCCC(CCCC=C)(N[*:1])C(=O)[*:2]; TfeGA = (S)-2-amino-3-((carboxymethyl)(2,2,2-trifluoroethyl)amino)propanoic acid, O=C([C@H](CN(CC(=O)[*:3])CC(F)(F)F)N[*:1])[*:2]; PyrS2 = (S)-3-amino-1-((pent-4-en-1-yloxy)carbonyl)pyrrolidine-3-carboxylic acid, C=CCCCOC(=O)N1CC[C@@](N[*:1])(C(=O)[*:2])C1; MePpzAsn = (S)-2-amino-4-(4-methylpiperazin-1-yl)-4-oxobutanoic acid, CN1CCN(C(=O)C[C@H](N[*:1])C(=O)[*:2])CC1; F2PipNva = (S)-2-amino-5-(4,4-difluoropiperidin-1-yl)pentanoic acid, O=C([C@H](CCCN1CCC(F)(F)CC1)N[*:1])[*:2]; MorphAsn = (S)-2-amino-4-morpholino-4-oxobutanoic acid, O=C(C[C@H](N[*:1])C(=O)[*:2])N1CCOCC1; B5(3) = 2,2-bis(4-pentenyl)glycine (stitching residue), C=CCCCC(CCCC=C)(N[*:1])C(=O)[*:2]; Nva(5-morpholino) = N[C@@H](CCCN1CCOCC1)C(=O)O; Phe(3-COOH) = N[C@@H](Cc1cccc(C(=O)O)c1)C(=O)O; 2F3MeF = Cc1cccc(C[C@H](N[*:1])C(=O)[*:2])c1F; Phe(2-Cl) = N[C@@H](Cc1ccccc1Cl)C(=O)O; Bta = N[C@@H](Cc1csc2ccccc12)C(=O)O; αAllylPro = C=CC[C@@]1(C(=O)O)CCCN1; tBuAla = CC(C)(C)C[C@H](N)C(=O)O
readout.label: NanoBRET Abs IC50 (µM)
Answers are plain numbers, in µM.

1. Ac-[αAllylPro]D[tBuAla][B5(3)]D[TfeGA]AAFT[PyrS2″][Phe(2-Cl)][Bta][MorphAsn]-NH2 (staple 1-4, 4-11) [I-1613]: 5.2
2. Ac-[αAllylPro]D[tBuAla][B5(3)]D[TfeGA]AAFT[PyrS2][Phe(2-Cl)][Bta][Nva(5-morpholino)]-NH2 (staple 1-4, 4-11) [I-1609]: 6.7
3. Ac-[αAllylPro]D[tBuAla][B5(4)]D[TfeGA]AAFT[PyrS2][Phe(2-Cl)][Bta][F2PipNva]-NH2 (staple 1-4, 4-11) [I-1607]: 11.9
4. Ac-[αAllylPro]D[tBuAla][B5(3)]D[TfeGA]AAFT[PyrS2″][Phe(2-Cl)][Bta][MePpzAsn]-NH2 (staple 1-4, 4-11) [I-1611]: 9.8
5. Ac-[αAllylPro]D[tBuAla][B5(3)]D[Phe(3-COOH)]AAFL[PyrS2][2F3MeF][Bta][Nva(5-morpholino)]-NH2 (staple 1-4, 4-11) [I-1610]: 4.1

Consider the additional binder presented here.
// query I'd like to know its NanoBRET Abs IC50. The binder in question is Ac-[αAllylPro]D[tBuAla][B5(4)]D[Phe(3-COOH)]AAFL[PyrS2][2F3MeF][Bta][F2PipNva]-NH2 (staple 1-4, 4-11) [I-1608]
// result 15.1

Source: patent US20240116985A1
